protocolText: In vitro stability of dicarboxylate amino acid ester prodrugs in simulated gastric and intestinal juice, distilled water and pH 10 buffer (HPLC)
assaySetup: pH 6.8, 2 h, 37° C.
quantityMeasured: Simulated intestinal fluid (pH 6.8): % remaining after 2 h/37° C. (%)

[
  {
    "compound": "COc1ccc2c3c1O[C@H]1C(OC(=O)CCC(=O)NC(C(=O)O)C(C)C)=CC[C@@]4(O)[C@@H](C2)N(C)CC[C@]314 (stereo in doubt)",
    "reading": 85
  },
  {
    "compound": "COc1ccc2c3c1O[C@H]1C(OC(=O)CCCC(=O)N[C@H](C(=O)O)C(C)C)=CC[C@@]4(O)[C@@H](C2)N(C)CC[C@]314",
    "reading": 87
  },
  {
    "compound": "COc1ccc2c3c1OC1C(OC(=O)CCC(=O)N[C@@H](CCSC)C(=O)O)=CC[C@@]4(O)[C@@H](C2)N(C)CC[C@]314 (stereo partly drawn)",
    "reading": 84
  },
  {
    "compound": "COc1ccc2c3c1O[C@H]1C(OC(=O)CCCC(=O)N[C@@H](CC(C)C)C(=O)O)=CC[C@@]4(O)[C@@H](C2)N(C)CC[C@]314",
    "reading": 79
  },
  {
    "compound": "COc1ccc2c3c1OC1C(OC(=O)CCC(=O)N[C@@H](CC(C)C)C(=O)O)=CC[C@@]4(O)[C@@H](C2)N(C)CC[C@]314 (stereo partly drawn)",
    "reading": 78
  },
  {
    "compound": "CC[C@H](C)[C@H](NC(=O)CCC(=O)OC1=CC[C@@]2(O)[C@H]3Cc4ccc(OC)c5c4[C@@]2(CCN3C)[C@H]1O5)C(=O)O",
    "reading": 91
  }
]

====

protocolText: Stability of meptazinol dicarboxylate bridged amino acid prodrugs in simulated gastric and intestinal juice and pH 7.4 buffer
Type: physicochemical
assaySetup: simulated gastric fluid, 1 h
Reported 1 h stability in simulated gastric fluid (37° C.), Conversion to meptazinol is given for each of the following compounds.
quantityMeasured: 1 h stability in simulated gastric fluid (37° C.), Conversion to meptazinol (%)

[
  {
    "compound": "CCC1(c2cccc(OC(=O)CC(C)(C)CC(=O)NCC(=O)O)c2)CCCCN(C)C1 (stereo not drawn)",
    "reading": 4
  },
  {
    "compound": "CCC1(c2cccc(OC(=O)CCCC(=O)Nc3ccc(C(=O)O)cc3)c2)CCCCN(C)C1 (stereo not drawn) [Meptazinol [glutaryl-PABA] ester]",
    "reading": 5
  },
  {
    "compound": "CCC1(c2cccc(OC(=O)c3ccccc3C(=O)N[C@@H](Cc3ccccc3)C(=O)O)c2)CCCCN(C)C1.O=C(O)C(F)(F)F (stereo partly drawn)",
    "reading": 3
  },
  {
    "compound": "CCC1(c2cccc(OC(=O)C=CC(=O)Nc3ccc(C(=O)O)cc3)c2)CCCCN(C)C1 (stereo not drawn) [Meptazinol [fumaryl-PABA] ester]",
    "reading": 2
  },
  {
    "compound": "CCC1(c2cccc(OC(=O)CC(C)(C)CC(=O)Nc3ccc(C(=O)O)cc3)c2)CCCCN(C)C1 (stereo not drawn)",
    "reading": 1
  },
  {
    "compound": "CCC1(c2cccc(OC(=O)CCC(=O)N3CCC[C@H]3C(=O)O)c2)CCCCN(C)C1 (stereo partly drawn) [Meptazinol-[succinyl-(S)-proline] ester]",
    "reading": 4
  }
]

====

Reported % change from vehicle-treated animals, total gut length is given for each of the following compounds.
Tested on: gut motility in the rat
protocolText: Charcoal propulsion test of GI motility in the rat
Type: in vivo
assaySetup: oral, 30 mg/kg
quantityMeasured: % change from vehicle-treated animals, total gut length (%)

[
  {
    "compound": "COc1ccc2c3c1O[C@H]1[C@@H](O)C=C[C@H]4[C@@H](C2)N(C)CC[C@@]341 [Codeine phosphate hemihydrate]",
    "reading": "−32.0"
  },
  {
    "compound": "COc1ccc2c3c1O[C@H]1[C@@H](O)CC[C@H]4[C@@H](C2)N(C)CC[C@@]341.O=C(O)C(O)C(O)C(=O)O [Dihydrocodeine Hydrogen Tartrate, reference compound]",
    "reading": "−30.5"
  },
  {
    "compound": "COc1ccc2c3c1O[C@H]1C(=O)CC[C@@]4(O)[C@@H](C2)N(C)CC[C@]314 [Oxycodone, oxycodone, reference compound]",
    "reading": "−52.2"
  }
]

====

protocolText: Plasma pharmacokinetics of meptazinol dicarboxylate linked prodrugs after oral gavage to dogs
Assay type: in vivo, dog
assaySetup: dog; oral gavage of prodrug, 1 mg meptazinol base equivalents/kg; prodrug level; BLQ = below 0.5 ng/mL
Reported Dog Cmax (plasma prodrug levels, in brackets) is given for each of the following compounds.
quantityMeasured: Dog Cmax (plasma prodrug levels, in brackets) (ng/mL)

[
  {
    "compound": "CCC1(c2cccc(OC(=O)CC(=O)NC(C(=O)O)C(C)C)c2)CCCCN(C)C1 [Meptazinol [malonyl-(S)-valine] ester]",
    "reading": 44
  },
  {
    "compound": "CCC1(c2cccc(OC(=O)CCCC(=O)Nc3ccc(C(=O)O)cc3)c2)CCCCN(C)C1 (centres unmarked) [Meptazinol [glutaryl-PABA] ester]",
    "reading": 6.7
  },
  {
    "compound": "CCC1(c2cccc(OC(=O)CCCC(=O)N[C@H](C(=O)O)C(C)C)c2)CCCCN(C)C1 (stereo partly drawn) [Meptazinol [glutaryl-(S)-valine] ester]",
    "reading": 2.8
  },
  {
    "compound": "CCC1(c2cccc(OC(=O)c3ccccc3C(=O)N[C@@H](Cc3ccccc3)C(=O)O)c2)CCCCN(C)C1.O=C(O)C(F)(F)F (some centres unmarked)",
    "reading": 71
  },
  {
    "compound": "CCC1(c2cccc(OC(=O)/C=C\\C(=O)N[C@@H](Cc3ccccc3)C(=O)O)c2)CCCCN(C)C1 (some centres unmarked)",
    "reading": 1.7
  },
  {
    "compound": "CCC1(c2cccc(OC(=O)C(C)(C)CC(=O)N[C@H](C(=O)O)C(C)C)c2)CCCCN(C)C1 (some centres unmarked)",
    "reading": 25
  },
  {
    "compound": "CCC1(c2cccc(OC(=O)CC(C)(C)CC(=O)Nc3ccc(C(=O)O)cc3)c2)CCCCN(C)C1 (centres unmarked)",
    "reading": 25
  },
  {
    "compound": "CCC1(c2cccc(OC(=O)CCC(=O)N3CCC[C@H]3C(=O)O)c2)CCCCN(C)C1 (stereo partly drawn) [Meptazinol-[succinyl-(S)-proline] ester]",
    "reading": 36
  },
  {
    "compound": "CCC1(c2cccc(OC(=O)CC(C)(C)CC(=O)NCC(=O)O)c2)CCCCN(C)C1 (centres unmarked)",
    "reading": 29
  }
]

====

protocolText: Comparative oral bioavailability of oxycodone from various dicarboxylate bridged amino acid prodrugs in dogs (nine-way crossover)
Assay type: in vivo, dog
assaySetup: 1 mg/kg oxycodone free base, t = last quantifiable time point, mean (±sd)

[
  {
    "compound": "CC[C@H](C)[C@H](NC(=O)CCCC(=O)OC1=CC[C@@]2(O)[C@H]3Cc4ccc(OC)c5c4[C@@]2(CCN3C)[C@H]1O5)C(=O)O [Oxycodone-Glutaryl-Ile Enol Ester]",
    "AUC0-t of oxycodone": "135.7 (±27.9) h. * ng/mL"
  },
  {
    "compound": "CC[C@H](C)[C@H](NC(=O)CCC(=O)OC1=CC[C@@]2(O)[C@H]3Cc4ccc(OC)c5c4[C@@]2(CCN3C)[C@H]1O5)C(=O)O [Oxycodone-Succinyl-Ile Enol Ester]",
    "AUC0-t of oxycodone": "130.6 (±25.6) h. * ng/mL"
  },
  {
    "compound": "COc1ccc2c3c1OC1C(OC(=O)CCC(=O)N[C@@H](CC(C)C)C(=O)O)=CC[C@@]4(O)[C@@H](C2)N(C)CC[C@]314 (some centres unmarked) [Oxycodone-Succinyl-Leu Enol Ester]",
    "AUC0-t of oxycodone": "142.5 (±28.4) h. * ng/mL"
  },
  {
    "compound": "COc1ccc2c3c1OC1C(OC(=O)CCC(=O)N[C@@H](CCSC)C(=O)O)=CC[C@@]4(O)[C@@H](C2)N(C)CC[C@]314 (some centres unmarked) [Oxycodone-Succinyl-Met Enol Ester]",
    "AUC0-t of oxycodone": "180.6 (±37.7) h. * ng/mL"
  },
  {
    "compound": "COc1ccc2c3c1O[C@H]1C(OC(=O)CCC(=O)N4CCC[C@H]4C(=O)O)=CC[C@@]4(O)[C@@H](C2)N(C)CC[C@]314 [Oxycodone succinyl proline ester]",
    "AUC0-t of oxycodone": "75.2 (±13.7) h. * ng/mL"
  }
]
